The measured values listed here are drawn from ChEMBL document CHEMBL5375952.

Test: Cytotoxicity against human Caco-2 cells assessed as cell growth inhibition incubated for 24 hrs by CCK8 assay
Assay type: toxicity, cell-based
Property: IC50 at 24 h; scope: individual compounds

* OC(Cn1cncn1)(Cn1cncn1)c1ccc(F)cc1F | > 64 µg/mL
* Cc1ccc(C(NC(=O)CC(C)C)c2ccc3cccnc3c2O)cc1 (stereo not given) | 32 µg/mL
* COc1ccccc1C(NC(=O)Cc1ccccc1)c1ccc2cccnc2c1O (stereo not given) | > 64 µg/mL
* Oc1c(I)cc(Cl)c2cccnc12 | 19.3 µg/mL

Consider the compound CCN(CC)c1ccc(C(NC(=O)C(C)C)c2ccc3cccnc3c2O)cc1 (stereo not given) and give its measured IC50 at 24 h. 72.6 µg/mL
